Origin of measurements: PubChem BioAssay (NCI)

# System: SF-539 CNS
# experimentalProtocol: NCI-60 one-dose screen, 48 h
# runParameters: 10 µM unless noted
This is part of a sample that, as a whole, favours compounds with a hit. Of some 83,000 tested, about 20% had one in any assay. Activity calls are given as the source filed them. Rule for the calls: active = growth percent below 10; inactive = the rest.
Pick one: active, inactive

[
  {
    "smiles": "COc1cc2c(-c3cc4c(cc3CNCCc3ccc5c(c3)OCO5)OCO4)cccc2c(OC)c1O",
    "cat": "inactive"
  },
  {
    "smiles": "CCOC(=O)c1cc(C(=O)c2ccc(OC)c(OC)c2)n2c1ccc1ccccc12",
    "cat": "inactive"
  },
  {
    "smiles": "CCNC(=O)Oc1ccc(/C(=C(\\C)c2ccccc2)c2ccc(OCCN(CC)CC)cc2)cc1",
    "cat": "inactive"
  }
]

Inquiry: Record lookup: outcome of this test for O=c1c2c(c(=O)n1O)c1c3ccc[nH]c3nc1c1nc3[nH]cccc3c12 ?
Reply text: inactive

Inquiry: Record lookup: outcome of this test for COc1ccc(C(=O)c2nc3ccccc3n2CC(=O)c2ccc(F)cc2)cc1 ?
Reply text: inactive

Inquiry: Record lookup: outcome of this test for C#CCNC(=O)c1cccc2c1cc(C)n2-c1nc2c(c(NCc3ccccc3)n1)CCCC2 ?
Reply text: active

Inquiry: Record lookup: outcome of this test for COc1cc(OC)cc(C(=O)C[n+]2cccc3cc[nH]c32)c1 ?
Reply text: inactive

Inquiry: Record lookup: outcome of this test for Brc1ccc(Nc2csc(-c3ccccn3)n2)cc1 ?
Reply text: inactive

Inquiry: Record lookup: outcome of this test for CC(C)(C)c1cc(/C=N/NC(=O)c2ccccc2NC(=O)c2cccs2)c(O)c(C(C)(C)C)c1 ?
Reply text: inactive

Inquiry: Record lookup: outcome of this test for COc1ccc2nc(-c3ccc(-c4noc(-c5cc(OC)c(OC)c(OC)c5)n4)cc3)[nH]c2c1 ?
Reply text: active

Inquiry: Record lookup: outcome of this test for CC(=O)O[C@H]1Cc2c([nH]c3ccccc23)[C@@H](c2ccc(Cl)cc2)N1C(=O)CCNC(C)(C)C ?
Reply text: inactive

Inquiry: Record lookup: outcome of this test for CCOC(=O)/C(C#N)=C1/NNC(=Nc2cccnc2)S1 ?
Reply text: inactive

Inquiry: Record lookup: outcome of this test for O=C1/C=C/[C@@H](O)[C@@H]2C[C@@H](O)C[C@H]2/C=C/CCC[C@H](CCc2cccc3ccccc23)O1 ?
Reply text: inactive

Inquiry: Record lookup: outcome of this test for C=C(C)[C@@H]1CC[C@]2(C(=O)N[C@@H](Cc3ccccc3)C(=O)OC)CC[C@]3(C)[C@H](CC[C@@H]4[C@@]5(C)CCC(=O)C(C)(C)[C@@H]5CC[C@]43C)[C@@H]12 ?
Reply text: inactive

Inquiry: Record lookup: outcome of this test for COc1ccccc1NS(=O)(=O)c1cccc(C(=O)Nc2ccc(Br)cc2)c1 ?
Reply text: inactive

Inquiry: Record lookup: outcome of this test for CCN(CC)CC[n+]1cc2cc(OC)c(OC)cc2c2ccc3cc4c(cc3c21)OCO4 ?
Reply text: active

Inquiry: Record lookup: outcome of this test for O=C(/C=C(/C=C/c1csc2ccccc12)OB(F)F)/C=C/c1csc2ccccc12 ?
Reply text: inactive

Inquiry: Record lookup: outcome of this test for COc1c(Cl)c2c(c(OC)c1OC)-c1ccc(SC)c(=O)cc1[C@@H](NC(=O)OCC(F)(F)F)CC2 ?
Reply text: active

Inquiry: Record lookup: outcome of this test for COc1ccc(C/C(C)=C(/c2ccc(OCCCN(C)C)cc2)c2ccc(OC(C)=O)cc2)cc1 ?
Reply text: inactive
